test system: VchCAST RNA-guided transposition machinery (E. coli BL21(DE3) host, lacZ target); assay: relative integration efficiency (T-LR orientation) vs wild-type transposon end (log2 (normalized fold change)); transposon end mutated: right end (5 bp flank + 75 bp right end); higher = more efficient transposition
The entries below are paired with their reported relative integration efficiency (log2).
// return a plain number; no unit text

Recorded relative integration efficiency (log2), per entry:
| Ordered residues | Numeric value |
| --- | --- |
| ACATTTGTTGATACAACCATAAAATGATAATTAATAATTATTTATAATCAGCAACCACCCATAAATTGATAATTATCACACCCATAAATTGATATTGCCTCTGATCATAGTCAGACCAACATTGCTA | -1.81 |
| ACATTTGTTGATACAACCTAAAAATGATAATTACACCCATAAATTGATAATTATCACACCCATAAATTGATATTGCCTCTGATCATAGTCAGACCAACATTGCTACGACCCGTATTCGCACCGACAC | -0.819 |

Entry ACATTTGTTGATACAACCATATATTGATATCTCCAACCATATATTGATATCTCTCACAACCATAAAATGATAATTACTCTGATCATAGTCAGACCAACATTGCTACGACCCGTATTCGCACCGACAC , relative integration efficiency (log2) reported as -0.08

====

system: VchCAST RNA-guided transposition machinery (E. coli BL21(DE3) host, lacZ target); assay: relative integration efficiency (T-RL orientation) vs wild-type transposon end (log2 (normalized fold change)); transposon end mutated: right end (5 bp flank + 75 bp right end); higher = more efficient transposition
Endpoint: relative integration efficiency (log2)
No unit in the answer, please; the number alone is enough.

Below, 2 sequences whose answers are already recorded.
| Ordered residues | relative integration efficiency (log2) |
| --- | --- |
| ACATTTGTTGATACAACCATATTTTGATAATTACACCCATATTATGATAATTATCACACCCATATTATGATATTGCCTCTGATCATAGTCAGACCAACATTGCTACGACCCGTATTCGCACCGACAC | -0.721 |
| ACATTAGTGGATACAACCATAAAATGATAATTACACCCATAAATTGATCATTATCACACCCAATTTAACTATAACGCTCTGATCATAGTCAGACCAACATTGCTACGACCCGTATTCGCACCGACAC | -7.5 |

Sample ACATTTGTTGATACAACCATAAAATGATAATTACACCCATAAATTGATAATTATCACACCCATAAATTGATATTGCCTCTTCTTTGCTCACGCATCTAGTCGGTCCACGTTTGGTTCGCACCGACAC ; relative integration efficiency (log2) observed: -0.231

====

system: VchCAST RNA-guided transposition machinery (E. coli BL21(DE3) host, lacZ target); assay: relative integration efficiency (T-LR orientation) vs wild-type transposon end (log2 (normalized fold change)); transposon end mutated: right end (5 bp flank + 75 bp right end); higher = more efficient transposition
Response key: true means relative integration efficiency (log2) >= -0.2; false means relative integration efficiency (log2) < -0.2.

Sample answers from the record:
| Ordered residues | Qualitative label |
| --- | --- |
| ACATTTGTTGATACAACCATAAAATGATAATTAGACCCCATAATTGATAATTATCACACCCATAAATTGATATTGCCTCTGATCATAGTCAGACCAACATTGCTACGACCCGTATTCGCACCGACAC | false |
| CGCGCTGTTGATACAACCATAAAATGATAATTACACCCATAAATTGATAATTATCACACCCATAAATTGATATTGCCTCTGATCATAGTCAGACCAACATTGCTACGACCCGTATTCGCACCGACAC | true |
| ACATTTGTTCATACAACCATAAAATGATAATTACCACCCATAAATTGATAATTATCACACCCATTTAACTATAACGCTCTGATCATAGTCAGACCAACATTGCTACGACCCGTATTCGCACCGACAC | false |
| ACATTTGTTGATACAACCATAAAATGATAATTACACCCATAAATTGAATATTATCACACCCATAAATTGATATTGCCTCTGATCATAGTCAGACCAACATTGCTACGACCCGTATTCGCACCGACAC | false |

Quick check, relative integration efficiency (log2) >= -0.2? ACATTTGTTGATACAACCATAAAATGATAATTACAACCATAAAATGATAATTATCACACCCATAAATTGATAATTACTCTGATCATAGTCAGACCAACATTGCTACGACCCGTATTCGCACCGACAC
true

Answer whether relative integration efficiency (log2) of ACATTTGTTGATACAACCATAAAATGATAATTACACCCATAAATTGATTCACACCCATAAATTGATATTGCCTCTGATCATAGTCAGACCAACATTGCTACGACCCGTATTCGCACCGACACTGACT is greater than or equal to -0.2.
true

Please tell me: is the sequence ACATTTGTTGATACCACCATCAAATGGTAATTCCACCCCTAAATTGATAATTATCACACCCAATTTAACTATAACGCTCTGATCATAGTCAGACCAACATTGCTACGACCCGTATTCGCACCGACAC at or over -0.2 in terms of relative integration efficiency (log2)?
false

Record ACATTTGTTGATACAACCATAAAATGATAATGCCACCCATAAATTGATAATTATCACACCCATAAATTGATATTGCCTCTGATCATAGTCAGACCAACATTGCTACGACCCGTATTCGCACCGACAC ; criterion: relative integration efficiency (log2) no lower than -0.2. Met?
true

hey, is relative integration efficiency (log2) for this one >= -0.2? ACATTTGTTGATACAACCATAAAGTGATATTTACAACCATAAAATGATAATTATCACAACCATAAGTTGATATTTTCTCTGATCATAGTCAGACCAACATTGCTACGACCCGTATTCGCACCGACAC
true

// inclusive: relative integration efficiency (log2) at least -0.2? input: ACATTTGTTGATACAACCATAAGTTGATATTTTCAACCATATATTGATATCTCTCACACCCATAAATTGATAATTACTCTGATCATAGTCAGACCAACATTGCTACGACCCGTATTCGCACCGACAC
true

Can ACATTTGTTGATACAACCATAAAATGAAAATTACACCCATAAATTGAAAATTATCACACCCATAAATTGAAATTGCCTCTGATCATAGTCAGACCAACATTGCTACGACCCGTATTCGCACCGACAC be said to have relative integration efficiency (log2) at or above -0.2?
true

For this sequence, is measured relative integration efficiency (log2) -0.2 or higher? ACATTTGTTGATACAAGGATAAAATGATAATTACACCCATAAATTGATAATTATCACACCCATAAATTGATATTGCCTCTGATCATAGTCAGACCAACATTGCTACGACCCGTATTCGCACCGACAC
false

Entry ACATTTGTTGATACCACCATCAAATGGTAATTACACCCCTAAATTGATAATTATCACACCCAATTTAACTATAACGCTCTGATCATAGTCAGACCAACATTGCTACGACCCGTATTCGCACCGACAC : is its relative integration efficiency (log2) no less than -0.2?
false

====

Property: relative integration efficiency (log2); scope: individual sequences
test system: VchCAST RNA-guided transposition machinery (E. coli BL21(DE3) host, lacZ target); assay: relative integration efficiency (T-LR orientation) vs wild-type transposon end (log2 (normalized fold change)); transposon end mutated: right end (5 bp flank + 75 bp right end); higher = more efficient transposition
// print number alone

# count of solved cases: 4
| Ordered residues | Assay system | Endpoint | Numeric value |
| --- | --- | --- | --- |
| ACATTTGTCGATACAACCCTAAAATGATAATTACACCCATAAATGGATCATTATCACCCCCAATTTAACTATAACGCTCTGATCATAGTCAGACCAACATTGCTACGACCCGTATTCGCACCGACAC | VchCAST RNA-guided transposition machinery (E. coli BL21(DE3) host, lacZ target) | relative integration efficiency (log2) | -1.4 |
| ACATTTCTGGATACAACCATAAAATGATAATTACACCCATAAATTCATCATTATCACACCCAATTTAACTATAACGCTCTGATCATAGTCAGACCAACATTGCTACGACCCGTATTCGCACCGACAC | VchCAST RNA-guided transposition machinery (E. coli BL21(DE3) host, lacZ target) | relative integration efficiency (log2) | -0.104 |
| ACATTTGTTGATACAACCATAAAGTGATATTTACAACCATAAGTTGATATTTTTCACAACCATAAAATGATAATTACTCTGATCATAGTCAGACCAACATTGCTACGACCCGTATTCGCACCGACAC | VchCAST RNA-guided transposition machinery (E. coli BL21(DE3) host, lacZ target) | relative integration efficiency (log2) | 0.217 |
| ACATTTGTTGATACACCCATAAATTGATATTGCCACCCATAAATTGATAATTATCACACCCATAAATTGATAATTACTCTGATCATAGTCAGACCAACATTGCTACGACCCGTATTCGCACCGACAC | VchCAST RNA-guided transposition machinery (E. coli BL21(DE3) host, lacZ target) | relative integration efficiency (log2) | -0.0383 |

The record that follows has no relative integration efficiency (log2) shown yet.
Lookup result for ACATTTGTTGATACAACCATAAAATGATAATTACACCCATAAATTGATAATTATCACACCCATAAATTGATCTCTGATCATAGTCAGACCAACATTGCTACGACCCGTATTCGCACCGACACTGACT ; measured relative integration efficiency (log2): 0.731

Values compiled from the supplement of paper PMC10201428.
